Biological target: T1, ACAD9WT (mature ACAD9, residues 38-621) (human, UniProt Q9H845 38-621)
T1 construct: human ACAD9, mature form, residues 38-621; E. coli codon-optimised synthetic gene; Cloned into pET-21d(+); Plasmid details are in Supplementary Data 1; source: E. coli C43 (DE3), purified (HisTrap, dialysed in SEC buffer)
T1 sequence (looked up): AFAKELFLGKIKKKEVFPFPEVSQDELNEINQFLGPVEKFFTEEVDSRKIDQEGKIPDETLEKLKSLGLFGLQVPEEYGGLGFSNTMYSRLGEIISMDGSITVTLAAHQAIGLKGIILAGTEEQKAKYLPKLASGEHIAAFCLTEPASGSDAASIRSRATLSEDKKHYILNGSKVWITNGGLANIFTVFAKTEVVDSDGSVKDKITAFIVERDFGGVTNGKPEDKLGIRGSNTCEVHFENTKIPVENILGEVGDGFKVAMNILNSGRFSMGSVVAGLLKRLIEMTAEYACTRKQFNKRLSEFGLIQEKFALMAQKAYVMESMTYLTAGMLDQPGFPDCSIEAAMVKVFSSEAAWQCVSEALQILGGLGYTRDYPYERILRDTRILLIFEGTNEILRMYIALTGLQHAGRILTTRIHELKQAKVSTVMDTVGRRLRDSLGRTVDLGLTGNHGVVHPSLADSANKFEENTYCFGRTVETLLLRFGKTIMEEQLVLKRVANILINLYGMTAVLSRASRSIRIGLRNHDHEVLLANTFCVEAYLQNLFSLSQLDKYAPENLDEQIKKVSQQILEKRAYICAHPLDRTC
Assay: dynamic light scattering; 278 K, protein at 1-2 mg/ml; complexes reconstituted at molar ratio 1:1.25
Conditions: both partners purified
Outcome Measure: binding result

ECSIT_(CTER-W324A) (domain or fragment, human, UniProt Q9BQ95 221-431, looked up, human ECSIT, residues 221-431, W324A; also called ECSIT-W324A; ECSIT_(W324A); source: E. coli BL21 Star (DE3), purified (HisTrap, SEC)) QDPVELAMFGLRHMEPDLSARVTIYQVPLPKDSTGAADPPQPHIVGIQSPDQQAALARHNPARPVFVEGPFSLWLRNKCVYYHILRADLLPPEEREVEETPEEANLYYPMQLDLEYVRSGWDNYEFDINEVEEGPVFAMCMAGAHDQATMAKWIQGLQETNPTLAQIPVVFRLAGSTRELQTSSAGLEEPPLPEDHQEEDDNLQRQQQGQS : binds
